Each recorded value in this set is attributed to paper PMC1568752.

test system: DMAP N-demethylase; test: In vivo induction of rat hepatic microsomal DMAP N-demethylase; details: 300 umole/kg, immature male Wistar rats (Figure 7)
ATTRIBUTE_MEASURED: in vivo induction of DMAP N-demethylase

Guide cases for in vivo induction of DMAP N-demethylase, answers given:
SUBSTANCE_SMILES: O=[N+]([O-])c1ccc(-c2cc(Cl)c(Cl)c(Cl)c2Cl)cc1
in vivo induction of DMAP N-demethylase: inducers
//
SUBSTANCE_SMILES: N#Cc1ccc(-c2cc(Cl)c(Cl)c(Cl)c2Cl)cc1
in vivo induction of DMAP N-demethylase: inducers
//
SUBSTANCE_SMILES: Clc1ccc(-c2cc(Cl)c(Cl)c(Cl)c2Cl)cc1
in vivo induction of DMAP N-demethylase: inducers
//
SUBSTANCE_SMILES: Clc1cc(-c2ccc(I)cc2)c(Cl)c(Cl)c1Cl
in vivo induction of DMAP N-demethylase: inactive
//
SUBSTANCE_SMILES: CC(C)c1ccc(-c2cc(Cl)c(Cl)c(Cl)c2Cl)cc1
in vivo induction of DMAP N-demethylase: inactive

// returns reported in vivo induction of DMAP N-demethylase for input Clc1cc(-c2ccc(Br)cc2)c(Cl)c(Cl)c1Cl
inducers

Entry FC(F)(F)c1ccc(-c2cc(Cl)c(Cl)c(Cl)c2Cl)cc1 please
inactive

Now consider CC(C)(C)c1ccc(-c2cc(Cl)c(Cl)c(Cl)c2Cl)cc1 and answer again.
inactive

Also, Fc1ccc(-c2cc(Cl)c(Cl)c(Cl)c2Cl)cc1 please.
inducers
